- condition.context: in isopropanol, 318.2 K
value.kind: solubility (mole fraction)
// return just the number, without any unit appended

Per the records, this compound ( CO[C@H]1/C=C/O[C@@]2(C)Oc3c(C)c(O)c4c(O)c(c(/C=N/N5CCN(C)CC5)c(O)c4c3C2=O)NC(=O)/C(C)=C\C=C\[C@H](C)[C@H](O)[C@@H](C)[C@@H](O)[C@@H](C)[C@H](OC(C)=O)[C@@H]1C ) has solubility (mole fraction) equal to 0.0017

###

- condition.context: in triacetin, 308.2 K
value.kind: solubility (mole fraction)
Would you mind answering with just the numeric figure?

Please fill in: solubility (mole fraction) reported for CO[C@H]1/C=C/O[C@@]2(C)Oc3c(C)c(O)c4c(O)c(c(/C=N/N5CCN(C)CC5)c(O)c4c3C2=O)NC(=O)/C(C)=C\C=C\[C@H](C)[C@H](O)[C@@H](C)[C@@H](O)[C@@H](C)[C@H](OC(C)=O)[C@@H]1C = 0.00072

###

- condition.context: in ethyl acetate, 318.2 K
value.kind: solubility (mole fraction)

Note to self: solubility (mole fraction) recorded for CO[C@H]1/C=C/O[C@@]2(C)Oc3c(C)c(O)c4c(O)c(c(/C=N/N5CCN(C)CC5)c(O)c4c3C2=O)NC(=O)/C(C)=C\C=C\[C@H](C)[C@H](O)[C@@H](C)[C@@H](O)[C@@H](C)[C@H](OC(C)=O)[C@@H]1C was 0.013

###

- condition.context: in triacetin, 303.2 K
value.kind: solubility (mole fraction)
// response body must contain only the number

// sample CO[C@H]1/C=C/O[C@@]2(C)Oc3c(C)c(O)c4c(O)c(c(/C=N/N5CCN(C)CC5)c(O)c4c3C2=O)NC(=O)/C(C)=C\C=C\[C@H](C)[C@H](O)[C@@H](C)[C@@H](O)[C@@H](C)[C@H](OC(C)=O)[C@@H]1C , its solubility (mole fraction) was 0.00052

###

- condition.context: in eugenol, 298.2 K
value.kind: solubility (mole fraction)
Give only the figure.

The molecule identified as CO[C@H]1/C=C/O[C@@]2(C)Oc3c(C)c(O)c4c(O)c(c(/C=N/N5CCN(C)CC5)c(O)c4c3C2=O)NC(=O)/C(C)=C\C=C\[C@H](C)[C@H](O)[C@@H](C)[C@@H](O)[C@@H](C)[C@H](OC(C)=O)[C@@H]1C registered its solubility (mole fraction) at 0.00028

###

- condition.context: in transcutol, 313.2 K
value.kind: solubility (mole fraction)
A bare number is all that is needed in reply.

solubility (mole fraction) recorded for this molecule, CO[C@H]1/C=C/O[C@@]2(C)Oc3c(C)c(O)c4c(O)c(c(/C=N/N5CCN(C)CC5)c(O)c4c3C2=O)NC(=O)/C(C)=C\C=C\[C@H](C)[C@H](O)[C@@H](C)[C@@H](O)[C@@H](C)[C@H](OC(C)=O)[C@@H]1C , is 0.0049

###

- condition.context: in isopropyl myristate, 308.2 K
value.kind: solubility (mole fraction)
I'd appreciate a reply containing only the number, no unit.

CO[C@H]1/C=C/O[C@@]2(C)Oc3c(C)c(O)c4c(O)c(c(/C=N/N5CCN(C)CC5)c(O)c4c3C2=O)NC(=O)/C(C)=C\C=C\[C@H](C)[C@H](O)[C@@H](C)[C@@H](O)[C@@H](C)[C@H](OC(C)=O)[C@@H]1C has a reported solubility (mole fraction) of 0.0043
